The reported measurements were obtained from the supplement of paper PMC6555819.

Test system: LXRb:RXRa (NR concentration 270 nM, RXRa partner concentration 90 nM)
measurement_protocol: PBM binding z-score (relative to random genomic background probes); higher = stronger binding; sequences stand for … in GC…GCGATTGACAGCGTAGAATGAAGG
Measured PBM binding z-score by item
Just the number, please, no unit attached.

residues: TCTAGTTGGTCTAAGGTCACACACTCGAAATGCG
tgt: LXRb:RXRa (NR concentration 270 nM, RXRa partner concentration 90 nM)
value_reported: 4.1
--
residues: TTGCCTAGGTCATTGGGCCAGTATAGTACGCATC
tgt: LXRb:RXRa (NR concentration 270 nM, RXRa partner concentration 90 nM)
value_reported: 2.28

Retrieve PBM binding z-score on LXRb:RXRa (NR concentration 270 nM, RXRa partner concentration 90 nM); query TAGCCTAGGTTATGGGCCAGTATACCACGCGAAC 0.13

Retrieve PBM binding z-score on LXRb:RXRa (NR concentration 270 nM, RXRa partner concentration 90 nM); query CCTACTGGTCCAAGGTCATTGATCAGTCAAAGCA 3.52

Retrieve PBM binding z-score on LXRb:RXRa (NR concentration 270 nM, RXRa partner concentration 90 nM); query TGAATGAGGTTAAATATCAGGGAACGTGGCGTCG 1.79

Retrieve PBM binding z-score on LXRb:RXRa (NR concentration 270 nM, RXRa partner concentration 90 nM); query CGAACGAGGTCATCCAGGACAGTGAATACATTGA 5.42

Retrieve PBM binding z-score on LXRb:RXRa (NR concentration 270 nM, RXRa partner concentration 90 nM); query TCTAGTTGGTCACGGAGGACACACACGACGGGTA 0.424

Retrieve PBM binding z-score on LXRb:RXRa (NR concentration 270 nM, RXRa partner concentration 90 nM); query TAGCCTAGGTCATGCGGGACAGTATAGTGTCGGC 1.88
